Values compiled from ChEMBL document CHEMBL1121397.

# Tested on: Mus musculus
# Assay Explanation: Tested for in vivo antiviral activity against semliki forest virus in mice after subcutaneous administration
# Assay type: functional
# Study Conditions: sc
Reported values of ED50 for individual entries
Give the value, in units of mg/kg, as a plain number.

Example entries and their recorded answers appear below.
[[record]]
compound = "Nc1nc(O)c(I)c(-c2ccccc2)n1"
test_result = 25

[[record]]
compound = "Nc1nc(O)c(Cl)c(-c2ccccc2)n1"
test_result = 105


--- query ---
Inquiry: Look up ED50: Nc1nc(=O)c(Br)c(-c2ccccc2)[nH]1 [BROPIRIMINE]
Reply text: 50

====

# Tested on: Mus musculus
# Assay Explanation: Tested for in vivo antiviral activity against semliki forest virus in mice after subcutaneous administration
# Assay type: functional
# Study Conditions: sc
Metric: ED50

Consider the reported ED50 for these compounds:
[[record]]
record_smiles = "CCOCCc1c(O)nc(N)nc1-c1ccccc1"
test_target = "Mus musculus"
metric = "ED50"
test_result = "> 400 mg/kg"

[[record]]
record_smiles = "CCc1c(O)nc(N)nc1-c1ccccc1"
test_target = "Mus musculus"
metric = "ED50"
test_result = "> 400 mg/kg"


From here, focus on the item given below.
Inquiry: Recorded ED50 for C=CCc1c(O)nc(N)nc1-c1ccccc1 with Mus musculus, please?
Reply text: > 400 mg/kg
